Cited source: patent US20230219898A1

- Test system: Murine RGC5(661W) cells
- protocol.summary: RIPK1-dependent apoptosis (RDA) of RGC5 cells induced by TNFα plus 5Z-7-Oxozeaenol
- Assay type: cell-based
- conditions.used: Mus musculus, Table 2, 0.5 ng/ml TNFα plus 0.5 μM 5Z-7-Oxozeaenol, 21 hours, read-out: RGC5 T/5z7 IC50
Reported values of IC50 for individual entries
reported.endpoint: IC50 (nM)

O=C(CSC1=NCCN1)NC1CCCCC1 :: 2360
O=C(CSC1=NCCN1)NC1CCCCCC1 :: 180
O=C(CSC1=NCCN1)NC1CCC1 :: 4510
O=C(CSC1=NCCN1)NC1CCCC1 :: 3420

====

- tested.system: TRADD-N (Homo sapiens, UniProt Q15628)
- Sequence (Q15628 1-179): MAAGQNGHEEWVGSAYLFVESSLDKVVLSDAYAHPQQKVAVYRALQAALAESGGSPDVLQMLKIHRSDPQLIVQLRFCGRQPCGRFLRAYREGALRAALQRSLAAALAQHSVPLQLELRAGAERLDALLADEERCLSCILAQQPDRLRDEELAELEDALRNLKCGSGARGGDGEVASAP
pKd: −log10 of the molar value.
reported.endpoint: pKd

CN1CCN=C1SC(C(=O)NC1CCCCCC1)c1ccccc1 (stereo not shown) :: 5.66

====

This listing pairs molecules with measured IC50.
- Test system: Murine RGC5(661W) cells
- protocol.summary: RIPK1-dependent apoptosis (RDA) of RGC5 cells induced by TNFα plus 5Z-7-Oxozeaenol
- Assay type: cell-based
- conditions.used: Mus musculus, Table 3, 0.5 ng/ml TNFα plus 0.5 μM 5Z-7-Oxozeaenol, 21 hours, read-out: RGC5 T/5z7 IC50/μM
reported.endpoint: IC50 (µM)

CC(SC1=NCCN1C)C(=O)N(C)C1CCCCCC1 (stereo not shown) :: 2.93
CN1CCN=C1SCC(=O)NC1CCCCCC1 :: 3.33
CC(C)C(SC1=NCCN1C)C(=O)NC1CCCCCC1 (stereo not shown) :: 1.83
CN1CCN=C1SC(C)(C)C(=O)NC1CCCCCC1 :: 1.67
Fc1ccccc1CSC1=NCCN1 :: 5.87
CN1CCN=C1SC(C(=O)NC(c1ccccc1)c1ccccc1)c1ccccc1 (stereo not shown) :: 1.57
O=C(CSC1=NCCN1)NC(c1ccccc1)c1ccccc1 :: 3.05

====

pIC50 listing for selected molecules.
- System: Human Jurkat cells
- protocol.summary: Velcade-induced apoptosis of Jurkat cells, CellTiter-Glo viability
- Format: cell-based
- conditions.used: FIG. 5b, Velcade 50 nM, 24 h, read-out: IC50 of inhibition of Velcade-induced apoptosis
pIC50: −log10 of the molar value.
reported.endpoint: pIC50

CN1CCN=C1SC(C(=O)NC1CCCCCC1)c1ccccc1 (centres unmarked) [Compound 30] :: ~6.00
O=C(CSC1=NCCN1)NC1CCCCCC1 [ICCB-19] :: ~6.00

====

- Tested on: Human Jurkat cells
- protocol.summary: Velcade-induced apoptosis of Jurkat cells, CellTiter-Glo viability
- Assay type: cell-based
- conditions.used: Table 3, 50 nM Velcade, 24 hours, read-out: Jurkat Velcade IC50/μM
reported.endpoint: IC50 (µM)

CC(SC1=NCCN1)C(=O)N(C)C1CCCCCC1 (centres unmarked) :: 1.22
CCN1CCN=C1SC(C(=O)NC1CCCCCC1)c1ccccc1 (centres unmarked) :: 1.07
CN1CCN=C1SC(C(=O)NC1CCCCCC1)c1ccccc1Cl (centres unmarked) :: 0.882
CN1CCN=C1SC(C)(C)C(=O)NC1CCCCCC1 :: 1.04
CC(C)C(SC1=NCCN1C)C(=O)NC1CCCCCC1 (centres unmarked) :: 3.87
CN1CCN=C1SC(C(=O)NC(c1ccccc1)c1ccccc1)c1ccccc1 (centres unmarked) :: 1.15
CN1CCN=C1SC(C(=O)NC1CCCCCC1)c1ccccc1 (centres unmarked) :: 0.799
O=C(CSC1=NCCN1)NC1CCCCCC1 :: 1.12
CN1CCN=C1SCC(=O)NC1CCCCCC1 :: 1.8
CN1CCN=C1SC(C(=O)NC1CCCCCC1)c1ccc(Cl)cc1 (centres unmarked) :: 2.14
CC(SC1=NCCN1C)C(=O)N(C)C1CCCCCC1 (centres unmarked) :: 0.953
CC(SC1=NCCN1)C(=O)NC1CCCCCC1 (centres unmarked) :: 3.66
O=C(CSC1=NCCN1)NC(c1ccccc1)c1ccccc1 :: 1.17
CC(SC1=NCCN1C)C(=O)NC1CCCCCC1 (centres unmarked) :: 3.06
CN(C(=O)CSC1=NCCN1)C1CCCCCC1 :: 1.46
Fc1ccccc1CSC1=NCCN1 :: 3.23
CN1CCN=C1SCC(=O)N(C)C1CCCCCC1 :: 1.99

====

- Tested on: Murine RGC5(661W) cells
- protocol.summary: RIPK1-dependent apoptosis (RDA) of RGC5 cells induced by TNFα plus 5Z-7-Oxozeaenol
- Assay type: cell-based
- conditions.used: Mus musculus, Table 3, 0.5 ng/ml TNFα plus 0.5 μM 5Z-7-Oxozeaenol, 21 hours, read-out: RGC5 T/5z7 IC50/μM
Labelling field: enter Satisfied if recorded IC50 is less than 2 µM. Enter Not satisfied if it equals or exceeds that cut-off.

CN1CCN=C1SC(C(=O)NC1CCCCCC1)c1ccccc1Cl (stereo not shown) :: Not satisfied
CN1CCN=C1SC(C(=O)NC1CCCCCC1)c1ccc(Cl)cc1 (stereo not shown) :: Satisfied
CN(C(=O)CSC1=NCCN1)C1CCCCCC1 :: Not satisfied
CN1CCN=C1SCC(=O)N(C)C1CCCCCC1 :: Not satisfied
CC(SC1=NCCN1C)C(=O)NC1CCCCCC1 (stereo not shown) :: Not satisfied
CCN1CCN=C1SC(C(=O)NC1CCCCCC1)c1ccccc1 (stereo not shown) :: Satisfied
CC(SC1=NCCN1)C(=O)N(C)C1CCCCCC1 (stereo not shown) :: Not satisfied
CN1CCN=C1SC(C(=O)NC1CCCCCC1)c1ccccc1 (stereo not shown) :: Satisfied
CC(SC1=NCCN1)C(=O)NC1CCCCCC1 (stereo not shown) :: Not satisfied
